experiment: yeast display, Sf9 membrane polyspecificity reagent, FACS + sequencing; frameworks hold sequencing errors
experimental.readout: polyreactivity (PSR sort gate)

Field: example entries. Status: answers known.
- QVQLLESGGGLVQAGGSLRLSCAASGSIFYRYAMGWYRQAPGKEREFVAAISGSGSSTYYADSVKGRFTISRDNAKNTVYLQMNSLKPEDTAVYYCAARWRYYGSFDYWGQGTQVTVSS: high polyreactivity
- QVQLVESGGGLVQAGGSLRLSCAASGRTFVVNAMGWYRQAPGKERELVARITNSGLTNYADSVKGRFTISRDNAKNTVYLQMNSLKPEDTAVYYCNAAASYYVMLSWTRVYYWGQGTQVTVSS: high polyreactivity
- QVQLVESGGGLVQAGGSLRLSCAASGITFYRYVMGWYRQAPGKERELVAAITTGDSTYYADSVKGRFTISRDNAKNTVYLQMNSLKPEDTAVYFCAAVYYTALANYDYWGQGTQVTVSS: low polyreactivity
- QVQLVESGGGLVQAGGSLRLSCAASGRIFGMYTKGWYRQETGKETELVAAINTGGSTYYADSVKGRFTISRDNAKNTVYLQMNSLKPEDTAVYYCNAETGWPWIYHYDYWGQGTQVTVSS: low polyreactivity
- QVQLVESGGGLVQAGGSLRLSCAASGSTFSAYAMGGYRQAPGKERELVAVITSGASTYYADSVKGRFTISRDNAKNTVYLQMNSLKPEDTAVYYCAAYGYSYRGWRMDYWGQGTQVTVSS: high polyreactivity
- QVQLEESGGGLVQAGGSLRLSCAASGFNFFRNTMGGYRQAPGKERELVAGIRYSGGSTYYADSVKGRFTISRDNAKNTVYLQMNSLKPEDTAVYYCAARSHRRLMYYWGQGTQVTVSS: high polyreactivity
- QVQLEESGGGLVQAGGIRRLSCAASGRIFPYYAMGWYRLAPGKERELVAAISLSGGSTYYADSVKGRFTISRDTAKMSGYLQMTSLKPEDTAVYYGNAVASTSGYYWYPGLGYDYCGQGTQVTVSS: low polyreactivity
- QVQLVESWGGLVQAGGSLRLSCAASGLIFVGNAMGWYRQAPGKERELVAAISSRGGRTYYADSVKGRFTISRDNAKNTVYLQMNSLKPEDTAVYYCAARVWRYPYYWGQGTQVTVSS: high polyreactivity
- QVQLVESGGGLFQAGGSLRLSCADSGRIFTSNAMGWYRQATGKVRELVAVISRRGGSTYYADSVKGRFTISRDNAKNTVYLQMNSLKPEDTAVYYCNARVYWYYPMDYWGQGTQVTVSS: low polyreactivity
- QVQLVESGGGLVQAGGSLRLSCAASGSTFSYNAMGWYRQAPGKERELVAAIDRSVSTNYADSVKGRFTISRDNAKNTVYLQMNSLKPEDTAVYYCNARHPTDDIVIYDYWGQGTQVTVSS: low polyreactivity

Task: Find the recorded polyreactivity (PSR sort gate) belonging to QVQLVESGGGLVQAGGSLRLSCAASGFIFNRYVMGWYRQAPGKERELVAVISRGGSTSYADSVKGRFTISRDNAKNTVYLQMNSLKPEDTAVYYCNAVHSRVYYSLGYGYWGLGTQVTVSS and report it.
Result: high polyreactivity
